Each recorded value in this set is attributed to the supplement of paper PMC8728848.

# test_target: Fuc(a1-2)Gal(b1-4)Glc6S
# protocol_description: glycan array binding signal (z-score within array); higher = stronger binding
# test_settings: glycan notation: IUPAC condensed, linker removed
Shown is part of a subset that was picked to be rich in the strongest signals.
glycan array binding signal (z-score) values by entry

Examples with answers:
INSERT INTO assay_data (binder, result_value) VALUES
  ('LecB PA7 (Pseudomonas aeruginosa) (protein) MATQGVFTLPANTRFGVTAFANSSATQTVKVLVNNETAATFTGQSTNNAVIGSQVLNSGGGGKVQIQVSVNGRSSDLVSAQVILANELNVALVGSEDSTDNDYNDAVVVINWPLG', 1.89),
  ('HBHA-Rv (Mycobacterium tuberculosum), P0A5P6 (protein) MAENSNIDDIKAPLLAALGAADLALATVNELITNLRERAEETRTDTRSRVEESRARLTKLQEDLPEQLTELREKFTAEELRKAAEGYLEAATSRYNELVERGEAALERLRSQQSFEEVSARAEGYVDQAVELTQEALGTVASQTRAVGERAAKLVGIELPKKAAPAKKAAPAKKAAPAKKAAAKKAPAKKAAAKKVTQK', -0.121);

Quick note, glycan array binding signal (z-score) for LecB LY19 (Pseudomonas aeruginosa) (protein) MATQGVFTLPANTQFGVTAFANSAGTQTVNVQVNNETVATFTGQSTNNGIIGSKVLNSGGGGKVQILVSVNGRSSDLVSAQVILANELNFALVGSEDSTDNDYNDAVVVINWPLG landed at 1.37
